Origin of values: patent EP4559912A1

- TARGET_OR_SYSTEM: His-GST tagged PARG (Homo sapiens, UniProt Q86W56)
- Sequence (Q86W56 whole entry): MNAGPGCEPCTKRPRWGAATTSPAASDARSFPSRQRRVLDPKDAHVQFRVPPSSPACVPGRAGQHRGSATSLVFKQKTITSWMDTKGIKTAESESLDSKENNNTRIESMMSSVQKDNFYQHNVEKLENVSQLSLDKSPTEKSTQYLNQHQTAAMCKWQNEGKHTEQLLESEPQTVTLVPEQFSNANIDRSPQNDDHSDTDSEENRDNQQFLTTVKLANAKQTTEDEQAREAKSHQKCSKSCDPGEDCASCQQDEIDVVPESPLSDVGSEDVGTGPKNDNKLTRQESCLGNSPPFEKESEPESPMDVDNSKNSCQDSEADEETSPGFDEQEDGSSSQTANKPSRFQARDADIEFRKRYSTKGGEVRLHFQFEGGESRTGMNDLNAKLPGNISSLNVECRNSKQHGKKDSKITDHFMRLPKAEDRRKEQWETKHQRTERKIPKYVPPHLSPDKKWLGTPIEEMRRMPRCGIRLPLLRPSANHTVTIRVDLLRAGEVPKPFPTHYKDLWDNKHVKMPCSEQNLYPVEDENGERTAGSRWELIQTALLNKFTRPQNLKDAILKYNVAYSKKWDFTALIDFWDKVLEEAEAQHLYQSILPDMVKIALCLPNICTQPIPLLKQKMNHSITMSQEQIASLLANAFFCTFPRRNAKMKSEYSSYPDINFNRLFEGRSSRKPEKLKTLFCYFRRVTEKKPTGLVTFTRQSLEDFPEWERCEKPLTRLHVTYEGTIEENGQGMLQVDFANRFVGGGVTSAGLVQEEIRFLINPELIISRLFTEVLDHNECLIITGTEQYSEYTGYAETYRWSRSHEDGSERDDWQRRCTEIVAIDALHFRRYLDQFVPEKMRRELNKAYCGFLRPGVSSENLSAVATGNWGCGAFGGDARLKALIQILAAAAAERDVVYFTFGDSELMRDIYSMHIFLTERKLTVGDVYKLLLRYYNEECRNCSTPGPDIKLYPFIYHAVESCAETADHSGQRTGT
pIC50: −log10 of the molar value.
Recorded pIC50 by entry

COMPOUND	pIC50
CCOC(C(=O)N1CCN(c2cc(S(=O)(=O)NC3(C#N)CC3)cc3c2cnn3-c2nnc(C(F)F)s2)C[C@H]1C)C1CC1 (single isomer, unassigned) [EVO29710P2]	> 7.00
CO[C@H](C)C(=O)N1CCN(c2cc(S(=O)(=O)NC3(C)CC3)cc3c2cnn3-c2nnc(C)s2)C[C@H]1C	> 7.00
C[C@@H]1CN(c2cc(S(=O)(=O)NC3(C#N)CC3)cc3c2cnn3-c2nnc(C(F)F)s2)CCN1C(=O)C(O)C(C)(C)CF (single isomer, unassigned)	> 7.00
C[C@@H]1CN(c2cc(S(=O)(=O)NC3(C#N)CC3)cc3c2nnn3-c2nnc(C(F)F)s2)CCN1C(=O)[C@H](O)C(C)(C)C	6.30 to 7.00
C[C@@H]1CN(c2cc(S(=O)(=O)NC3(C#N)CC3)cc3c2cnn3-c2nnc(C(F)F)s2)CCN1C(=O)[C@H](O)C(C)(C)C	> 7.00
C[C@@H]1CN(c2cc(S(=O)(=O)NC3(C#N)CC3)cc3c2cnn3-c2nnc(C(F)F)s2)CCN1C(=O)C(=O)C1CC1	6.30 to 7.00

# next compound below
The compound CO[C@H](C)C(=O)N1CCN(c2cc(S(=O)(=O)NC3(C#N)CC3)cc3c2cnn3-c2nnc(C(F)F)s2)C[C@H]1C showed pIC50 equal to > 7.00
